Target: T1, Human Siglec-9 mutant M15 (human, UniProt Q9Y336 18-463)
T1 construct: Expressed on HEK293T cells; also called Mutant 15
T1 sequence (Q9Y336 other isoform, or with tags, fused parts or gaps mutant): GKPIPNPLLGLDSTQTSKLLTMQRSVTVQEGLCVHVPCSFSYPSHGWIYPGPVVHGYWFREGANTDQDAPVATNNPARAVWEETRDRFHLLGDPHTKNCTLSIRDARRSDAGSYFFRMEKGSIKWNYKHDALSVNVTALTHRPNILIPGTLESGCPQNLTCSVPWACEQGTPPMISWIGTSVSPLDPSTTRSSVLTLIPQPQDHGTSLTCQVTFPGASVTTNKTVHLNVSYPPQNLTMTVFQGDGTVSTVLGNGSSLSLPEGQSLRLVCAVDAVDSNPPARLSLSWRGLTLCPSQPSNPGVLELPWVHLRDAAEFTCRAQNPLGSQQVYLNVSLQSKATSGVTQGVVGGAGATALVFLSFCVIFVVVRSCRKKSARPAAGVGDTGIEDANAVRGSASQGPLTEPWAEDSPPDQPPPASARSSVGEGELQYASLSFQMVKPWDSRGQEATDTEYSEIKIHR
Experiment: flow cytometry, HEK293T transfectants
EXPERIMENTAL_ENDPOINT: binding result

binder="mAb1 (antibody, human IgG1, V domains shown) VH: DVQLQESGPGLVKPSQSLSLTCTVTGYSITGGFAWNWIRQFPGNTLEWMGYIGYGGSTSYNPSLNSRISITRDTSKNHFFLQFNSVTTDDSATYYCARGDYLFAYWGQGTLVTVSA VL: DIVMTQSHKFMSTSVGDRVSITCKASQDVNTAVAWYQQKPGQSPKLLIYSASYRYTGVPDRFTGSGSGTDFTFTISSVQAEDLAVYYCQQHYSTPRTFGGGTKLEIK" experimental_endpoint="binding result" value_measured=binds
binder="mAbE (antibody, human IgG1, V domains shown) VH: DVQLVESGGGLVQPGGSRKLSCAASGFTFSTFGMHWVRQAPEKGLEWVAYISSGSNAIYYADTVKGRFTISRDNPKNTLFLQMTSLRSEDTAMYYCASPGYGAWFAYWGQGTLVTVSA VL: ENVLTQSPAIMSASPGEKVTMTCRASSSVSSAYLHWYQQKSGASPKLWIYSTSNLASGVPARFSGSGSGTSYSLTISSVEAEDAATYYCQQYSAYPYTFGGGTKLEIK" experimental_endpoint="binding result" value_measured=binds
binder="mAb2 (antibody, human IgG1, V domains shown) VH: EVQLQESGPGLVKPSQSLSLTCTVTGYSITGGFAWNWIRQFPGNTLEWMGYIGYGGSTSYNPSLNSRISITRDTSKNHFFLQFNSVTTEDSATYYCARGDYLFAYWGQGTLVTVSA VL: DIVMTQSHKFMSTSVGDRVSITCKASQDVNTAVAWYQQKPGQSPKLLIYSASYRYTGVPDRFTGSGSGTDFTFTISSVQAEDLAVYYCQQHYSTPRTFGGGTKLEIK" experimental_endpoint="binding result" value_measured=binds
